Settings: in isopropanol, 298.15 K
measurementName: solubility (mole fraction)
Answer field: number only, no words.

Ask: I'd like to know its solubility (mole fraction). The compound in question is "CCc1cc(C(N)=S)ccn1"
Result: 0.00642

* * *

Conditions: in methanol, 303.15 K
measurementName: solubility (mole fraction)
Answer field: number only, no words.

Ask: I'd like to know its solubility (mole fraction). The compound in question is "CCc1cc(C(N)=S)ccn1"
Result: 0.013

* * *

Settings: in ethyl acetate, 308.15 K
measurementName: solubility (mole fraction)
Answer field: number only, no words.

Ask: I'd like to know its solubility (mole fraction). The molecule in question is "CCc1cc(C(N)=S)ccn1"
Result: 0.0231

* * *

Conditions: in DMAc, 323.15 K
measurementName: solubility (mole fraction)
Answer field: number only, no words.

Ask: I'd like to know its solubility (mole fraction). The molecule in question is "CCc1cc(C(N)=S)ccn1"
Result: 0.257

* * *

Conditions: in n-propanol, 298.15 K
measurementName: solubility (mole fraction)
Answer field: number only, no words.

Ask: I'd like to know its solubility (mole fraction). The molecule in question is "CCc1cc(C(N)=S)ccn1"
Result: 0.00862

* * *

Conditions: in methanol, 323.15 K
measurementName: solubility (mole fraction)
Answer field: number only, no words.

Ask: I'd like to know its solubility (mole fraction). The molecule in question is "CCc1cc(C(N)=S)ccn1"
Result: 0.0256

* * *

Conditions: in DMAc, 278.15 K
measurementName: solubility (mole fraction)
Answer field: number only, no words.

Ask: I'd like to know its solubility (mole fraction). The compound in question is "CCc1cc(C(N)=S)ccn1"
Result: 0.169

* * *

Details: in acetone, 293.15 K
measurementName: solubility (mole fraction)
Answer field: number only, no words.

Ask: I'd like to know its solubility (mole fraction). The molecule in question is "CCc1cc(C(N)=S)ccn1"
Result: 0.00925

* * *

Conditions: in 2-ethoxyethanol, 278.15 K
measurementName: solubility (mole fraction)
Answer field: number only, no words.

Ask: I'd like to know its solubility (mole fraction). The molecule in question is "CCc1cc(C(N)=S)ccn1"
Result: 0.0252

* * *

Conditions: in ethanol, 323.15 K
measurementName: solubility (mole fraction)
Answer field: number only, no words.

Ask: I'd like to know its solubility (mole fraction). The molecule in question is "CCc1cc(C(N)=S)ccn1"
Result: 0.0228

* * *

Conditions: in DMF, 283.15 K
measurementName: solubility (mole fraction)
Answer field: number only, no words.

Ask: I'd like to know its solubility (mole fraction). The molecule in question is "CCc1cc(C(N)=S)ccn1"
Result: 0.112

* * *

Details: in DMAc, 288.15 K
measurementName: solubility (mole fraction)

Ask: I'd like to know its solubility (mole fraction). The compound in question is "CCc1cc(C(N)=S)ccn1"
Result: 0.179

* * *

Details: in isopropanol, 313.15 K
measurementName: solubility (mole fraction)
Answer field: number only, no words.

Ask: I'd like to know its solubility (mole fraction). The compound in question is "CCc1cc(C(N)=S)ccn1"
Result: 0.0115

* * *

Conditions: in n-propanol, 288.15 K
measurementName: solubility (mole fraction)
Answer field: number only, no words.

Ask: I'd like to know its solubility (mole fraction). The compound in question is "CCc1cc(C(N)=S)ccn1"
Result: 0.00562

* * *

Details: in acetone, 283.15 K
measurementName: solubility (mole fraction)
Answer field: number only, no words.

Ask: I'd like to know its solubility (mole fraction). The compound in question is "CCc1cc(C(N)=S)ccn1"
Result: 0.00695

* * *

Conditions: in NMP, 303.15 K
measurementName: solubility (mole fraction)
Answer field: number only, no words.

Ask: I'd like to know its solubility (mole fraction). The compound in question is "CCc1cc(C(N)=S)ccn1"
Result: 0.23

* * *

Conditions: in ethanol, 298.15 K
measurementName: solubility (mole fraction)
Answer field: number only, no words.

Ask: I'd like to know its solubility (mole fraction). The compound in question is "CCc1cc(C(N)=S)ccn1"
Result: 0.00993

* * *

Settings: in ethanol, 303.15 K
measurementName: solubility (mole fraction)

Ask: I'd like to know its solubility (mole fraction). The compound in question is "CCc1cc(C(N)=S)ccn1"
Result: 0.012

* * *

Settings: in acetone, 323.15 K
measurementName: solubility (mole fraction)
Answer field: number only, no words.

Ask: I'd like to know its solubility (mole fraction). The molecule in question is "CCc1cc(C(N)=S)ccn1"
Result: 0.0226

* * *

Conditions: in NMP, 278.15 K
measurementName: solubility (mole fraction)
Answer field: number only, no words.

Ask: I'd like to know its solubility (mole fraction). The molecule in question is "CCc1cc(C(N)=S)ccn1"
Result: 0.182

* * *

Conditions: in isopropanol, 323.15 K
measurementName: solubility (mole fraction)
Answer field: number only, no words.

Ask: I'd like to know its solubility (mole fraction). The compound in question is "CCc1cc(C(N)=S)ccn1"
Result: 0.018

* * *

Settings: in 2-ethoxyethanol, 323.15 K
measurementName: solubility (mole fraction)
Answer field: number only, no words.

Ask: I'd like to know its solubility (mole fraction). The molecule in question is "CCc1cc(C(N)=S)ccn1"
Result: 0.0751

* * *

Conditions: in DMSO, 323.15 K
measurementName: solubility (mole fraction)
Answer field: number only, no words.

Ask: I'd like to know its solubility (mole fraction). The molecule in question is "CCc1cc(C(N)=S)ccn1"
Result: 0.271

* * *

Conditions: in ethyl acetate, 293.15 K
measurementName: solubility (mole fraction)
Answer field: number only, no words.

Ask: I'd like to know its solubility (mole fraction). The compound in question is "CCc1cc(C(N)=S)ccn1"
Result: 0.0144

* * *

Details: in 2-methoxyethanol, 318.15 K
measurementName: solubility (mole fraction)

Ask: I'd like to know its solubility (mole fraction). The molecule in question is "CCc1cc(C(N)=S)ccn1"
Result: 0.0848

* * *

Conditions: in DMAc, 298.15 K
measurementName: solubility (mole fraction)

Ask: I'd like to know its solubility (mole fraction). The compound in question is "CCc1cc(C(N)=S)ccn1"
Result: 0.199

* * *

Details: in 2-ethoxyethanol, 293.15 K
measurementName: solubility (mole fraction)
Answer field: number only, no words.

Ask: I'd like to know its solubility (mole fraction). The compound in question is "CCc1cc(C(N)=S)ccn1"
Result: 0.0336

* * *

Conditions: in acetone, 298.15 K
measurementName: solubility (mole fraction)
Answer field: number only, no words.

Ask: I'd like to know its solubility (mole fraction). The compound in question is "CCc1cc(C(N)=S)ccn1"
Result: 0.0109

* * *

Conditions: in ethanol, 308.15 K
measurementName: solubility (mole fraction)
Answer field: number only, no words.

Ask: I'd like to know its solubility (mole fraction). The molecule in question is "CCc1cc(C(N)=S)ccn1"
Result: 0.0134

* * *

Conditions: in ethanol, 293.15 K
measurementName: solubility (mole fraction)
Answer field: number only, no words.

Ask: I'd like to know its solubility (mole fraction). The molecule in question is "CCc1cc(C(N)=S)ccn1"
Result: 0.00835

* * *

Settings: in methanol, 293.15 K
measurementName: solubility (mole fraction)
Answer field: number only, no words.

Ask: I'd like to know its solubility (mole fraction). The compound in question is "CCc1cc(C(N)=S)ccn1"
Result: 0.00919

* * *

Conditions: in NMP, 313.15 K
measurementName: solubility (mole fraction)

Ask: I'd like to know its solubility (mole fraction). The compound in question is "CCc1cc(C(N)=S)ccn1"
Result: 0.253

* * *

Conditions: in NMP, 288.15 K
measurementName: solubility (mole fraction)
Answer field: number only, no words.

Ask: I'd like to know its solubility (mole fraction). The molecule in question is "CCc1cc(C(N)=S)ccn1"
Result: 0.199

* * *

Conditions: in NMP, 283.15 K
measurementName: solubility (mole fraction)
Answer field: number only, no words.

Ask: I'd like to know its solubility (mole fraction). The molecule in question is "CCc1cc(C(N)=S)ccn1"
Result: 0.191

* * *

Settings: in NMP, 308.15 K
measurementName: solubility (mole fraction)
Answer field: number only, no words.

Ask: I'd like to know its solubility (mole fraction). The molecule in question is "CCc1cc(C(N)=S)ccn1"
Result: 0.242

* * *

Conditions: in 2-ethoxyethanol, 318.15 K
measurementName: solubility (mole fraction)

Ask: I'd like to know its solubility (mole fraction). The compound in question is "CCc1cc(C(N)=S)ccn1"
Result: 0.0677
